Numbers sourced from ChEMBL document CHEMBL3124857.

assay: Cmax in C57BL/6J mouse at 50 mg/kg, po; type: ADME, organism-based; design: dose 50 mg/kg, route oral; conditions: in vivo
MEASURE: Cmax (ng/mL)
Provide the reading as a plain figure in ng/mL.

Task: Form field: reported Cmax of CCc1cc(C(=O)N[C@@H]2C[C@@H](C(N)=O)N(C(=O)c3coc4ccccc34)C2)n(CC)n1
Result: 1750

----------
assay: Lipophilicity, log D of the compound at pH 7.4 by chromatographic analysis; type: physicochemical; settings: buffer
MEASURE: chromatographic logD

>  <SMILES STRUCTURE>
CCNC(=O)[C@@H]1C[C@@H](NC(=O)c2cc(CC)nn2C)CN1C(=O)c1coc2ccccc12

>  <chromatographic logD>
2.93

$$$$

Task: Suppose we examine the compound CCc1cc(C(=O)N[C@@H]2C[C@@H](C(N)=O)N(C(=O)c3coc4ccccc34)C2)n(CC)n1 ; what chromatographic logD value has been reported?
Result: 2.94

----------
Entries and their measured IC50 follow.
Target: Enoyl-[acyl-carrier-protein] reductase [NADH] (Mycobacterium tuberculosis, UniProt P9WGR1)
Sequence (P9WGR1 whole entry): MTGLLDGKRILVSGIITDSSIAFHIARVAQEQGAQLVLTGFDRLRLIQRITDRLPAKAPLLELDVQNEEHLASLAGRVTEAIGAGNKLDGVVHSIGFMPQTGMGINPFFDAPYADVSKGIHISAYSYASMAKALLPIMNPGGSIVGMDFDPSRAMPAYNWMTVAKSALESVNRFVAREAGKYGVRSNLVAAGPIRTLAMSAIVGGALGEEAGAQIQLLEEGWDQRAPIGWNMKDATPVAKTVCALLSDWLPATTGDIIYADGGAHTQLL
Expressed in µM, but write only the number.

>  <COMPOUND>
CCc1cc(C(=O)N[C@@H]2C[C@@H](C(=O)NC3CCOC3=O)N(C(=O)c3coc4ccccc34)C2)n(C)n1 (stereo partly drawn)

>  <MEASURED TARGET>
Enoyl-[acyl-carrier-protein] reductase [NADH] (Mycobacterium tuberculosis, UniProt P9WGR1)

>  <MEASURE>
IC50

>  <ASSAY RESULT>
0.08

$$$$
>  <COMPOUND>
CCc1cc(C(=O)N[C@@H]2C[C@@H](C(=O)Nc3ccc4c(c3)B(O)OC4)N(C(=O)c3coc4ccccc34)C2)n(C)n1

>  <MEASURED TARGET>
Enoyl-[acyl-carrier-protein] reductase [NADH] (Mycobacterium tuberculosis, UniProt P9WGR1)

>  <MEASURE>
IC50

>  <ASSAY RESULT>
0.026

$$$$
>  <COMPOUND>
CCc1cc(C(=O)N[C@@H]2C[C@@H](C(=O)NCCc3ccc(F)cc3)N(C(=O)c3coc4ccccc34)C2)n(C)n1

>  <MEASURED TARGET>
Enoyl-[acyl-carrier-protein] reductase [NADH] (Mycobacterium tuberculosis, UniProt P9WGR1)

>  <MEASURE>
IC50

>  <ASSAY RESULT>
0.006

$$$$
>  <COMPOUND>
CCc1cc(C(=O)N[C@@H]2C[C@@H](C(=O)O)N(C(=O)c3coc4ccccc34)C2)n(C)n1

>  <MEASURED TARGET>
Enoyl-[acyl-carrier-protein] reductase [NADH] (Mycobacterium tuberculosis, UniProt P9WGR1)

>  <MEASURE>
IC50

>  <ASSAY RESULT>
1.29

$$$$
>  <COMPOUND>
CCc1cc(C(=O)N[C@@H]2C[C@@H](C(=O)NCCO)N(C(=O)c3coc4ccccc34)C2)n(CC)n1

>  <MEASURED TARGET>
Enoyl-[acyl-carrier-protein] reductase [NADH] (Mycobacterium tuberculosis, UniProt P9WGR1)

>  <MEASURE>
IC50

>  <ASSAY RESULT>
0.003

$$$$

Task: What measured IC50 goes with CCc1cc(C(=O)N[C@@H]2C[C@@H](C(=O)NC3CCCC3)N(C(=O)c3coc4ccccc34)C2)n(C)n1 ?
Result: 0.04

Task: Name the recorded IC50 for CCc1cc(C(=O)N[C@@H]2C[C@@H](C(=O)NCc3ccc(F)c(F)c3)N(C(=O)c3coc4ccccc34)C2)n(C)n1 .
Result: 0.009

----------
molecules and their reported IC50
Biological target: UniProt:P9WGR1
Sequence (P9WGR1 whole entry): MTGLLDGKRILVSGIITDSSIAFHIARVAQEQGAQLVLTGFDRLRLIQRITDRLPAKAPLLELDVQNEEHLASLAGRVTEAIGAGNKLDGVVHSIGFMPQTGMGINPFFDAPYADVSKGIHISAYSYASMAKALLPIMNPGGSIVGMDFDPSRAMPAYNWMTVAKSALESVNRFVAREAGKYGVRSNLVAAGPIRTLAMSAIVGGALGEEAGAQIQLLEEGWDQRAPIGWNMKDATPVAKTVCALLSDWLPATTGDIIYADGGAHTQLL
Answer format: numeric, nM implied, no suffix.

Field: example entries. Status: answers known.
>  <SMILES STRUCTURE>
CCCc1cc(C(=O)N[C@@H]2C[C@@H](C(=O)NCC(=O)OC)N(C(=O)c3coc4ccccc34)C2)n(C)n1

>  <IC50 / nM>
22

$$$$
>  <SMILES STRUCTURE>
CCc1cc(C(=O)N[C@@H]2C[C@@H](C(=O)NCc3nccs3)N(C(=O)c3coc4ccccc34)C2)n(C)n1

>  <IC50 / nM>
17

$$$$
>  <SMILES STRUCTURE>
CCc1cc(C(=O)N[C@@H]2C[C@@H](C(=O)Nc3ccn(Cc4c(F)cccc4F)n3)N(C(=O)c3coc4ccccc34)C2)n(C)n1

>  <IC50 / nM>
4

$$$$

Task: Look up IC50: CCc1cc(C(=O)N[C@@H]2C[C@@H](C(=O)Nc3ccccn3)N(C(=O)c3coc4ccccc34)C2)n(C)n1
Result: 11

----------
Molecular target: Enoyl-[acyl-carrier-protein] reductase [NADH] (Mycobacterium tuberculosis)
Sequence (P9WGR1 whole entry): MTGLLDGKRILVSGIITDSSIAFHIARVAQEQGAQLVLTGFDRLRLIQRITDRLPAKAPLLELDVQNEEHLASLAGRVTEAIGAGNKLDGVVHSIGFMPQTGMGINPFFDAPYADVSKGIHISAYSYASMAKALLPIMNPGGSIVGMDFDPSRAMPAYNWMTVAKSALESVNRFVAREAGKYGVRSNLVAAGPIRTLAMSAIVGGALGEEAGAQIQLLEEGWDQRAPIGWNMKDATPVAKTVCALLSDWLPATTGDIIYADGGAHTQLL
Overview of reported log10(IC50) across a group of compounds:
Parameter value (number): base-10 log of IC50 in nM.

// known answers, use as guide
>  <SMILES STRUCTURE>
CCc1cc(C(=O)N[C@@H]2C[C@@H](C(=O)NCC(F)(F)F)N(C(=O)c3coc4ccccc34)C2)n(C)n1

>  <MEASURED TARGET>
Enoyl-[acyl-carrier-protein] reductase [NADH] (Mycobacterium tuberculosis)

>  <ASSAY RESULT>
1.66

$$$$
>  <SMILES STRUCTURE>
CCCNC(=O)[C@@H]1C[C@@H](NC(=O)c2cc(CC)nn2C)CN1C(=O)c1coc2ccccc12

>  <MEASURED TARGET>
Enoyl-[acyl-carrier-protein] reductase [NADH] (Mycobacterium tuberculosis)

>  <ASSAY RESULT>
1.32

$$$$
>  <SMILES STRUCTURE>
CCNC(=O)[C@@H]1C[C@@H](NC(=O)c2cc(CC)nn2C)CN1C(=O)c1ccc2sccc2c1

>  <MEASURED TARGET>
Enoyl-[acyl-carrier-protein] reductase [NADH] (Mycobacterium tuberculosis)

>  <ASSAY RESULT>
2.08

$$$$
>  <SMILES STRUCTURE>
CCc1cc(C(=O)N[C@@H]2C[C@@H](C(=O)N(CC)CC)N(C(=O)c3coc4ccccc34)C2)n(C)n1

>  <MEASURED TARGET>
Enoyl-[acyl-carrier-protein] reductase [NADH] (Mycobacterium tuberculosis)

>  <ASSAY RESULT>
2.98

$$$$

Task: Name the reported log10(IC50) value associated with the compound CCc1cc(C(=O)N[C@@H]2C[C@@H](C(=O)Nc3nc(C)co3)N(C(=O)c3coc4ccccc34)C2)n(C)n1
Result: 0.95

----------
experiment: Permeability of the compound by artificial membrane permeability assay; assay type: physicochemical; conditions: PAMPA; read-out: permeability
MEASURE: Papp
Reply with a number, then the unit it belongs to.

>  <SMILES STRUCTURE>
CCNC(=O)[C@@H]1C[C@@H](NC(=O)c2cc(CC)nn2C)CN1C(=O)c1coc2ccccc12

>  <Papp>
130 nm/s

$$$$

Task: Any idea what its Papp is? The molecule is CCc1cc(C(=O)N[C@@H]2C[C@@H](C(N)=O)N(C(=O)c3coc4ccccc34)C2)n(CC)n1
Result: 78 nm/s

----------
molecular target: Enoyl-[acyl-carrier-protein] reductase [NADH] (Mycobacterium tuberculosis)
Field 'label' (enum: MET / NOT MET). Set to MET when IC50 is strictly under 20 nM; else NOT MET.

Task: A record lists CCc1cc(C(=O)N[C@@H]2C[C@@H](C(=O)NCc3ncco3)N(C(=O)c3coc4ccccc34)C2)n(C)n1 . Is its IC50 below 20 nM?
Result: MET

Task: Lab note: confirm whether the reported IC50 for this compound is below 20 nM, equality not counting. compound: CCc1cc(C(=O)N[C@@H]2C[C@@H](C(=O)NCc3cnc(C)cn3)N(C(=O)c3coc4ccccc34)C2)n(C)n1
Result: NOT MET

Task: Quick check: IC50 of CCc1cc(C(=O)N[C@@H]2C[C@@H](C(=O)NCc3ccccc3)N(C(=O)c3coc4ccccc34)C2)n(C)n1 under 20 nM?
Result: NOT MET

Task: Strictly below 20 nM in IC50? CCc1cc(C(=O)N[C@@H]2C[C@@H](C(=O)Nc3cnn(CC)n3)N(C(=O)c3coc4ccccc34)C2)n(C)n1
Result: MET

Task: Say whether its IC50 is strictly beneath 20 nM. Entry: CCc1cc(C(=O)N[C@@H]2C[C@@H](C(=O)N[C@H](CO)Cc3ccccc3)N(C(=O)c3coc4ccccc34)C2)n(C)n1
Result: NOT MET

Task: Dear reviewer, please state whether CCc1cc(C(=O)N[C@@H]2C[C@@H](C(=O)NCc3ccc(C)o3)N(C(=O)c3coc4ccccc34)C2)n(C)n1 has IC50 strictly beneath 20 nM.
Result: NOT MET

Task: I'd appreciate it if you could check whether CCc1cc(C(=O)N[C@@H]2C[C@@H](C(N)=O)N(C(=O)c3coc4ccccc34)C2)n(CC)n1 has IC50 smaller than 20 nM.
Result: MET
